Assay: Solubility in solubilizer solutions (shaken overnight, supernatant by HPLC)
Assay type: physicochemical
Conditions: solubilizer solution, aqueous with cosolvent or surfactant or cyclodextrin, thermodynamic from solid, 25% Propylene glycol (w/w); read-out: Solubility, Final conc
reported.property: solubility (µg/mL)
I only need the number, in µg/mL, no unit after it.

solubility in this record for CC1(C)O[C@@H]2C[C@H]3[C@@H]4CCC5=CC(=O)C=C[C@]5(C)[C@@]4(F)[C@@H](O)C[C@]3(C)[C@]2(C(=O)CO)O1 [TMCA, triamcinolone acetonide] : 60

----------
Test: Solubility in solubilizer solutions (shaken overnight, supernatant by HPLC)
Assay type: physicochemical
Settings: solubilizer solution, aqueous with cosolvent or surfactant or cyclodextrin, thermodynamic from solid, 25% ethanol (w/w); read-out: Solubility, Final conc
reported.property: solubility (µg/mL)
I only need the number, in µg/mL, no unit after it.

solubility in this record for CC1(C)O[C@@H]2C[C@H]3[C@@H]4CCC5=CC(=O)C=C[C@]5(C)[C@@]4(F)[C@@H](O)C[C@]3(C)[C@]2(C(=O)CO)O1 [TMCA, triamcinolone acetonide] : 230

----------
Test: Solubility in solubilizer solutions (shaken overnight, supernatant by HPLC)
Type: physicochemical
Conditions: solubilizer solution, aqueous with cosolvent or surfactant or cyclodextrin, thermodynamic from solid, 15% cremophor, 50% PEG 400 (w/w); read-out: Solubility, Final conc
reported.property: solubility (µg/mL)
I only need the number, in µg/mL, no unit after it.

solubility in this record for CC1(C)O[C@@H]2C[C@H]3[C@@H]4CCC5=CC(=O)C=C[C@]5(C)[C@@]4(F)[C@@H](O)C[C@]3(C)[C@]2(C(=O)CO)O1 [TMCA, triamcinolone acetonide] : 1240

----------
Assay: Solubility in solubilizer solutions (shaken overnight, supernatant by HPLC)
Format: physicochemical
Conditions: solubilizer solution, aqueous buffer, thermodynamic from solid, Phosphate buffer; read-out: Solubility, Final conc
reported.property: solubility (mg/mL)
I only need the number, in mg/mL, no unit after it.

solubility in this record for C[C@@H]1C[C@H]2[C@@H]3CCC4=CC(=O)C=C[C@]4(C)[C@@]3(F)[C@@H](O)C[C@]2(C)[C@@]1(O)C(=O)COP(=O)(O)O [DEX, dexamethasone sodium phosphate] : 70

Provenance of the data: patent US20110281834A1
